Property: OD450 at 0.001 nM antibody; scope: individual binders
- target system: T1, murine GPC3-his protein (Sino Biological, Cat. No. 50989-M08B) (murine, UniProt Q8CFZ4 25-558)
- T1 construct: Bought protein; also called murine GPC3 protein
- T1 sequence (Q8CFZ4 25-558 limits assumed): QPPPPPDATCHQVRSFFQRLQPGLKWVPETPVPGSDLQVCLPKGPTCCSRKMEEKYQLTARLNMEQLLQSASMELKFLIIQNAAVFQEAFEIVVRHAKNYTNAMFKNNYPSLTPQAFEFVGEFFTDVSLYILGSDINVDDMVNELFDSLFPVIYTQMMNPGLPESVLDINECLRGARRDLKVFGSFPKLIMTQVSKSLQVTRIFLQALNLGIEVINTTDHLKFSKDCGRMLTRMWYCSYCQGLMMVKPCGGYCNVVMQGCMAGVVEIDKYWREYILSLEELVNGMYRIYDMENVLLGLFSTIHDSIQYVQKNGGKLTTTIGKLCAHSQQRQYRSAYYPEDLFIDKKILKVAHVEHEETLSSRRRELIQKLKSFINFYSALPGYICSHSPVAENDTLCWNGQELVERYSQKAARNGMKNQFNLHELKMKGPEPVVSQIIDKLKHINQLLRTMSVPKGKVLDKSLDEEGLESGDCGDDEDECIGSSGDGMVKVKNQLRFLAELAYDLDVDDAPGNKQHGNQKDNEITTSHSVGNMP
- test details: ELISA, coated murine GPC3-His;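 further: antigen coated on plates at 1 µg/mL, test antibody bound for 2 h at 37 °C, detected with HRP-conjugated secondary antibody and TMB substrate after acid stop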

| binder | OD450 at 0.001 nM antibody |
| --- | --- |
| F1.153.1 human-murine chimeric antibody (antibody, human IgG1, kappa, V domains shown) VH: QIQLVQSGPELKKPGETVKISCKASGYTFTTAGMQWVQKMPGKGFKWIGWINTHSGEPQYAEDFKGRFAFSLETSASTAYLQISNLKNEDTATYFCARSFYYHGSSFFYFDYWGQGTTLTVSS VL: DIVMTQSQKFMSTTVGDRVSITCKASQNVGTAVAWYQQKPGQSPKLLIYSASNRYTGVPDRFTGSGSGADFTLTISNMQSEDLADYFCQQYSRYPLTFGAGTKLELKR | 0.08 OD450 nm |
| F4.26.1 human-murine chimeric antibody (antibody, human IgG1, kappa, V domains shown) VH: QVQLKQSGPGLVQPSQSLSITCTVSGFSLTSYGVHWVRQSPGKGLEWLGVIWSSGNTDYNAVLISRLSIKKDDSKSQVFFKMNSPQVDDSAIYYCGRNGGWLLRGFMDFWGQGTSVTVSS VL: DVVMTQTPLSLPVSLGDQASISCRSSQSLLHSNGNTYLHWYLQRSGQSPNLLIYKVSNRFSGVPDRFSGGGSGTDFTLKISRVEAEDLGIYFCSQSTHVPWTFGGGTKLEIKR | 0.07 OD450 nm |
| F2.55.11 human-murine chimeric antibody (antibody, human IgG1, kappa, V domains shown) VH: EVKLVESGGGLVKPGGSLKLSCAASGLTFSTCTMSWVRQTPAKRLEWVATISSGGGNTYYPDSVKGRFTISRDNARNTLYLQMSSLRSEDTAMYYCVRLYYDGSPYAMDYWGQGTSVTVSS VL: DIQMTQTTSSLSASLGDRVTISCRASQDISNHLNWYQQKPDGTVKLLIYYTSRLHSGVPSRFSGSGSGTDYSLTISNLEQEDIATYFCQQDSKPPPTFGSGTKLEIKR | 0.05 OD450 nm |
| F2.169.2 human-murine chimeric antibody (antibody, human IgG1, kappa, V domains shown) VH: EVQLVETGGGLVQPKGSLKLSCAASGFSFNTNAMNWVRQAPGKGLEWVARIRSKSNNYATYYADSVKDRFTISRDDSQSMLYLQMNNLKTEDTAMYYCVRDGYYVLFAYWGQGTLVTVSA VL: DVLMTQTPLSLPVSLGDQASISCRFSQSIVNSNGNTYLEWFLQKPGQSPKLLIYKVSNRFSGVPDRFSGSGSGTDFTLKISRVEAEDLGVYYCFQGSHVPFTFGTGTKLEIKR | 0.09 OD450 nm |
| F1.110.24 human-murine chimeric antibody (antibody, human IgG1, kappa, V domains shown) VH: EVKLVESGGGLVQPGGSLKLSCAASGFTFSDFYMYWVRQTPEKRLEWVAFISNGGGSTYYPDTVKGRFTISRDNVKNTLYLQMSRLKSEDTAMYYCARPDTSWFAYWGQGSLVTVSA VL: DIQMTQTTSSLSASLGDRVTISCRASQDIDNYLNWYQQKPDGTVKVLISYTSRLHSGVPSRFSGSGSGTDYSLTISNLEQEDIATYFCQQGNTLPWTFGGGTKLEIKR | 0.05 OD450 nm |

Values were extracted from patent US20260116991A1.
